- tested.target: MBP-FoxP1dN (Mus musculus, UniProt P58462 326-579)
- Sequence: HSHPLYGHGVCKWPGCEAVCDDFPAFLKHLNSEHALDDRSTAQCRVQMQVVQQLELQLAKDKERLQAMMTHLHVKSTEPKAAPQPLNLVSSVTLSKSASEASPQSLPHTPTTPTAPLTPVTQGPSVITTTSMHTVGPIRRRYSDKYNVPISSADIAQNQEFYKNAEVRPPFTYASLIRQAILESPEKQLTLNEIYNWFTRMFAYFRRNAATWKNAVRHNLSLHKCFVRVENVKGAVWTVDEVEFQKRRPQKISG
- experiment.description: PD-seq (MBP pull-down with sequencing); 20 mM Tris-HCl pH 7.5, 100 mM NaCl, 1.5 mM MgCl2, 0.4 uM protein, 0.1 uM dsDNA library, 30 min, room temperature, amylose pull-down; high values mean tight binding
- test.settings: protein: recombinant; tags: His6-MBP; chain copies: 2; dsDNA, one strand shown
Over roughly 16,000 sequences, “rpm ratio (pull-down/input)” has its median near 0.94; the highest 2% begin near 1.7. For the sample, the highest values were picked, then their nearest neighbours and some sequences at random.
For each record, write down the corresponding binding signal.

Worked examples follow.
sequence_string=GATGATTGTTCTCCCAGCTGATGAATTTTTATCATCGAGTAAACAAATTTTCCTAATCTTTCTGTTCAAGCGCCATCTAC tested_target="MBP-FoxP1dN (Mus musculus, UniProt P58462 326-579)" result="1.36 RPM ratio (pull-down/input)"
sequence_string=GATGATTGTTCTCCCAGCTGATGAATTGTTCTTATCGAGTAAACAAATTTTCCTAATCTTTCTGTTCAAGCGCCATCTAC tested_target="MBP-FoxP1dN (Mus musculus, UniProt P58462 326-579)" result="1.41 RPM ratio (pull-down/input)"
sequence_string=GATGATTGTTCTCCCAGCTGATGAATTCCGCCTATCGAGTAAACAAATTTTCCTAATCTTTCTGTTCAAGCGCCATCTAC tested_target="MBP-FoxP1dN (Mus musculus, UniProt P58462 326-579)" result="0.791 RPM ratio (pull-down/input)"
sequence_string=GATGATTGTTCTCCCAGCTGATGAATTGTTATCATCGAGTAAACAAATTTTCCTAATCTTTCTGTTCAAGCGCCATCTAC tested_target="MBP-FoxP1dN (Mus musculus, UniProt P58462 326-579)" result="1.73 RPM ratio (pull-down/input)"
sequence_string=GATGATTGTTCTCCCAGCTGATGAATTGGTCCCATCGAGTAAACAAATTTTCCTAATCTTTCTGTTCAAGCGCCATCTAC tested_target="MBP-FoxP1dN (Mus musculus, UniProt P58462 326-579)" result="0.976 RPM ratio (pull-down/input)"

List reported binding signal for each of these sequences:
1. GATGATTGTTCTCCCAGCTGATGAATTCGAGTTATCGAGTAAACAAATTTTCCTAATCTTTCTGTTCAAGCGCCATCTAC
2. GATGATTGTTCTCCCAGCTGATGAATTTGCTTTATCGAGTAAACAAATTTTCCTAATCTTTCTGTTCAAGCGCCATCTAC
3. GATGATTGTTCTCCCAGCTGATGAATTATCATCATCGAGTAAACAAATTTTCCTAATCTTTCTGTTCAAGCGCCATCTAC
4. GATGATTGTTCTCCCAGCTGATGAATTGTTGTTATCGAGTAAACAAATTTTCCTAATCTTTCTGTTCAAGCGCCATCTAC
5. GATGATTGTTCTCCCAGCTGATGAATTTTTGAGATCGAGTAAACAAATTTTCCTAATCTTTCTGTTCAAGCGCCATCTAC
6. GATGATTGTTCTCCCAGCTGATGAATTCCCCGGATCGAGTAAACAAATTTTCCTAATCTTTCTGTTCAAGCGCCATCTAC

0.96 RPM ratio (pull-down/input)
1.1 RPM ratio (pull-down/input)
1.12 RPM ratio (pull-down/input)
2.91 RPM ratio (pull-down/input)
0.928 RPM ratio (pull-down/input)
0.788 RPM ratio (pull-down/input)

List reported binding signal for each of these sequences:
1. GATGATTGTTCTCCCAGCTGATGAATTGCTTATATCGAGTAAACAAATTTTCCTAATCTTTCTGTTCAAGCGCCATCTAC
2. GATGATTGTTCTCCCAGCTGATGAATTTCGCATTTCGAGTAAACAAATTTTCCTAATCTTTCTGTTCAAGCGCCATCTAC
3. GATGATTGTTCTCCCAGCTGATGAATTGATCTTATCGAGTAAACAAATTTTCCTAATCTTTCTGTTCAAGCGCCATCTAC
4. GATGATTGTTCTCCCAGCTGATGAATTATGATATTCGAGTAAACAAATTTTCCTAATCTTTCTGTTCAAGCGCCATCTAC

["1.34 RPM ratio (pull-down/input)", "1.28 RPM ratio (pull-down/input)", "1.08 RPM ratio (pull-down/input)", "1.24 RPM ratio (pull-down/input)"]

Hey, just so you know, these numbers are from paper PMC12820563.
